assay: Solubility of celecoxib in HBSS (centrifugation, HPLC of supernatant); assay type: physicochemical; conditions: Hank's Balanced Salt Solution (HBSS), aqueous buffer, thermodynamic from solid, 37° C., 2 h mixing, API/excipient 1/5, total dispersed API 1,000 μg/mL, 16,000 g 10 min, read-out: water solubility of celecoxib (concentration in supernatant)
MEASURED METRIC: solubility at 2 h

(Q) Consider the molecule Cc1ccc(-c2cc(C(F)(F)F)nn2-c2ccc(S(N)(=O)=O)cc2)cc1 [celecoxib] and give its recorded solubility at 2 h.
(A) ~12.8 µg/mL

* * *

assay: physchem; type: physicochemical; settings: 37 °C, aqueous buffer, thermodynamic from solid
MEASURED METRIC: solubility at 2 h

(Q) Consider the compound COc1cc(/C=C/C(=O)CC(=O)/C=C/c2ccc(O)c(OC)c2)ccc1O [curcumin] and give its recorded solubility at 2 h.
(A) ~7.2 µg/mL

* * *

test: Solubility of griseofulvin in HBSS (centrifugation, HPLC of supernatant); type: physicochemical; conditions: Hank's Balanced Salt Solution (HBSS), aqueous buffer, thermodynamic from solid, 37° C., 2 h mixing, API/excipient 1/3, total dispersed API 2,500 μg/mL, 16,000 g 10 min, read-out: water solubility of griseofulvin (concentration in supernatant)
MEASURED METRIC: solubility at 2 h

(Q) Consider the molecule COC1=CC(=O)C[C@@H](C)[C@]12Oc1c(Cl)c(OC)cc(OC)c1C2=O [griseofulvin] and give its recorded solubility at 2 h.
(A) ~17.5 µg/mL

* * *

assay: Solubility of itraconazole in HBSS (centrifugation, HPLC of supernatant); format: physicochemical; details: Hank's Balanced Salt Solution (HBSS), aqueous buffer, thermodynamic from solid, 20° C., 10 min vortex, API/excipient 1/3, total dispersed API 2,500 μg/mL, 16,000 g 10 min, read-out: water solubility of itraconazole (concentration in supernatant)
MEASURED METRIC: solubility at 10 min

(Q) Consider the compound CCC(C)n1ncn(-c2ccc(N3CCN(c4ccc(OCC5COC(Cn6cncn6)(c6ccc(Cl)cc6Cl)O5)cc4)CC3)cc2)c1=O (stereo not shown) and give its recorded solubility at 10 min.
(A) ~0.96 µg/mL

* * *

experiment: Solubility of niclosamide in HBSS (centrifugation, HPLC of supernatant); type: physicochemical; settings: Hank's Balanced Salt Solution (HBSS), aqueous buffer, thermodynamic from solid, 37° C., 2 h mixing, API/excipient 1/3, total dispersed API 2,500 μg/mL, 16,000 g 10 min, read-out: water solubility of niclosamide (concentration in supernatant)
MEASURED METRIC: solubility at 2 h

(Q) Consider the molecule O=C(Nc1ccc([N+](=O)[O-])cc1Cl)c1cc(Cl)ccc1O [niclosamide] and give its recorded solubility at 2 h.
(A) ~13.2 µg/mL

* * *

test: Solubility of docetaxel in HBSS (centrifugation, HPLC of supernatant); assay type: physicochemical; settings: Hank's Balanced Salt Solution (HBSS), aqueous buffer, thermodynamic from solid, 20° C., 10 min vortex, API/excipient 1/3, total dispersed API 2,500 μg/mL, 16,000 g 10 min, read-out: water solubility of docetaxel (concentration in supernatant)
MEASURED METRIC: solubility at 10 min

(Q) Consider the compound CC(=O)O[C@@]12CO[C@@H]1C[C@H](O)[C@@]1(C)C(=O)[C@H](O)C3=C(C)[C@@H](OC(=O)[C@H](O)[C@@H](NC(=O)OC(C)(C)C)c4ccccc4)C[C@@](O)([C@@H](OC(=O)c4ccccc4)[C@H]21)C3(C)C and give its recorded solubility at 10 min.
(A) ~11.1 µg/mL
